tested on: DU-145 prostate; experiment: NCI-60 one-dose screen, 48 h (100 = growth as untreated, 0 = no growth, -100 = all killed); conditions: 10 µM unless noted
This is part of a sample that, as a whole, favours compounds with a hit. Of some 83,000 tested, about 20% had one in any assay. Active and inactive are the calls of the source. How the source made its calls: active means growth percent below 10; inactive means the rest.
This section presents compounds with their documented growth values.
attribute.measured: growth

[
  {
    "compound": "C[n+]1c(/C=C/c2ccc([N+](=O)[O-])cc2)ccc2ccccc21",
    "attribute.measured": "growth",
    "result": "104% (inactive)"
  },
  {
    "compound": "OC(CNc1ccnc2cc(Cl)ccc12)CNc1ccnc2cc(Cl)ccc12",
    "attribute.measured": "growth",
    "result": "57.4% (inactive)"
  },
  {
    "compound": "CC(=O)C(=Cc1ccc(C=C(C(C)=O)C(C)=O)cc1)C(C)=O",
    "attribute.measured": "growth",
    "result": "23.6% (inactive)"
  },
  {
    "compound": "CN1c2ccccc2C(C)(C)C12C=Cc1cc(O)ccc1O2 (stereo unspecified)",
    "attribute.measured": "growth",
    "result": "52.1% (inactive)"
  },
  {
    "compound": "Cc1ccnc(NC(c2ccccc2)c2ccc3cccnc3c2O)c1 (stereo unspecified)",
    "attribute.measured": "growth",
    "result": "47.8% (inactive)"
  },
  {
    "compound": "CN(Cc1cnc2nc(N)nc(N)c2n1)c1ccc(C(=O)NC(CCC(=O)O)C(=O)O)cc1 (stereo unspecified)",
    "attribute.measured": "growth",
    "result": "26.7% (inactive)"
  },
  {
    "compound": "CCCCCCCCCCCCCCNCc1ccccc1",
    "attribute.measured": "growth",
    "result": "81% (inactive)"
  },
  {
    "compound": "CN(C)c1ccc(N=Nc2cccc3ccccc23)cc1",
    "attribute.measured": "growth",
    "result": "107% (inactive)"
  },
  {
    "compound": "CCC1OC(OC)C=CC1=O (stereo unspecified)",
    "attribute.measured": "growth",
    "result": "107% (inactive)"
  },
  {
    "compound": "CC1OC2CC(=O)OC2C2=C1C(=O)c1c(O)cccc1C2=O (stereo unspecified)",
    "attribute.measured": "growth",
    "result": "-98.3% (active)"
  },
  {
    "compound": "CCC(CCCN(CC)CCc1ccccc1)OC(=O)c1cc(OC)c(OC)c(OC)c1 (stereo unspecified)",
    "attribute.measured": "growth",
    "result": "104% (inactive)"
  },
  {
    "compound": "CNc1ccc2c(c1)c1ccccc1n2C",
    "attribute.measured": "growth",
    "result": "102% (inactive)"
  },
  {
    "compound": "C/C=C1\\SC(=S)NC1=O",
    "attribute.measured": "growth",
    "result": "110% (inactive)"
  },
  {
    "compound": "Cc1c2ccccc2c(C)c2c1ccc1ccccc12",
    "attribute.measured": "growth",
    "result": "97.5% (inactive)"
  },
  {
    "compound": "CCC(CC)COC(=O)c1ccc(O)c(O)c1",
    "attribute.measured": "growth",
    "result": "73.4% (inactive)"
  },
  {
    "compound": "C[N+](C)=c1ccc2nc3c(cc(NCCCNc4cc5oc6cc(=[N+](C)C)ccc-6nc5c5ccccc45)c4ccccc43)oc-2c1",
    "attribute.measured": "growth",
    "result": "-100% (active)"
  },
  {
    "compound": "C=C(Cl)C(=NC(C)(C)C)Nc1ccccc1C",
    "attribute.measured": "growth",
    "result": "87.1% (inactive)"
  },
  {
    "compound": "CC(=Nc1ccc(N(C)C)cc1)c1ccccc1",
    "attribute.measured": "growth",
    "result": "46.9% (inactive)"
  },
  {
    "compound": "O=[N+]([O-])c1ccc(N=Nc2ccc(O)cc2O)cc1",
    "attribute.measured": "growth",
    "result": "83.2% (inactive)"
  },
  {
    "compound": "Oc1c(Cl)c2ccccc2c2ccccc12",
    "attribute.measured": "growth",
    "result": "102% (inactive)"
  },
  {
    "compound": "CNc1ccc(N)cc1",
    "attribute.measured": "growth",
    "result": "121% (inactive)"
  }
]

====

system: SW-620 colon; experiment: NCI-60 one-dose screen, 48 h (100 = growth as untreated, 0 = no growth, -100 = all killed); details: 10 µM unless noted
The panel holds about 83,000 compounds, 20% with a hit somewhere; the sample as a whole holds those more often.
Field: label. Allowed values: satisfied (growth < 80%) or not satisfied (growth >= 80%).

[
  {
    "molecule": "CCOC(=O)/C=C/c1ccc([N+](=O)[O-])o1",
    "target": "SW-620 colon",
    "qualitative.label": "satisfied"
  },
  {
    "molecule": "O=C1NC(=O)/C(=C/C=C/c2ccccc2)S1",
    "target": "SW-620 colon",
    "qualitative.label": "satisfied"
  },
  {
    "molecule": "CCC(CCCN(CC)CCc1ccccc1)OC(=O)c1cc(OC)c(OC)c(OC)c1 (configuration not stated)",
    "target": "SW-620 colon",
    "qualitative.label": "not satisfied"
  },
  {
    "molecule": "COc1ccc(N=N/N=c2\\sc3cc(OC)ccc3n2C)cc1",
    "target": "SW-620 colon",
    "qualitative.label": "not satisfied"
  },
  {
    "molecule": "CCC1OC(OC)C=CC1=O (configuration not stated)",
    "target": "SW-620 colon",
    "qualitative.label": "not satisfied"
  },
  {
    "molecule": "CNc1ccc2c(c1)c1ccccc1n2C",
    "target": "SW-620 colon",
    "qualitative.label": "not satisfied"
  },
  {
    "molecule": "N#Cc1ccc([N+](=O)[O-])o1",
    "target": "SW-620 colon",
    "qualitative.label": "not satisfied"
  },
  {
    "molecule": "Nc1nc(N)c2c(ccc3c2ccn3Cc2cccc([N+](=O)[O-])c2)n1",
    "target": "SW-620 colon",
    "qualitative.label": "satisfied"
  },
  {
    "molecule": "Oc1ccc(/C=N/NC(=S)Nc2ccccc2)nc1",
    "target": "SW-620 colon",
    "qualitative.label": "satisfied"
  },
  {
    "molecule": "CCOc1ccc(-c2nc3ccc(-c4nc5ccc(N6CCN(C)CC6)cc5[nH]4)cc3[nH]2)cc1",
    "target": "SW-620 colon",
    "qualitative.label": "satisfied"
  },
  {
    "molecule": "CN(C)c1ccc(/C=N/N=C(\\C#N)[S][Sn]([Cl])([c]2ccccc2)[c]2ccccc2)cc1",
    "target": "SW-620 colon",
    "qualitative.label": "satisfied"
  },
  {
    "molecule": "CC1(C)CC([P+](c2ccccc2)(c2ccccc2)c2ccccc2)=NN1",
    "target": "SW-620 colon",
    "qualitative.label": "satisfied"
  }
]

====

tested on: IGROV1 ovarian; experiment: NCI-60 one-dose screen, 48 h; conditions: 10 µM unless noted
The panel holds about 83,000 compounds, 20% with a hit somewhere; the sample as a whole holds those more often. Calls of active or inactive are those of the source. How the source made its calls: active means growth percent below 10; inactive means the rest. Where a SMILES comes first, the peptide text is derived from it. The star is where a group is joined. Trt = c1ccc(C(c2ccccc2)(c2ccccc2)*)cc1; Cbz = O=C(OCc1ccccc1)*
Outcomes: active, inactive

[
  {
    "molecule": "CCN(CC)CCOc1ccc(-c2nc3cc(Cl)ccc3s2)cc1",
    "qualitative.label": "active"
  },
  {
    "molecule": "CCOC(=O)/C=C/c1ccc([N+](=O)[O-])o1",
    "qualitative.label": "inactive"
  },
  {
    "molecule": "O=C1C2=C(Nc3cc([N+](=O)[O-])ccc3N2)OC1c1c2ccccc2cc2ccccc12 (stereo not given)",
    "qualitative.label": "inactive"
  },
  {
    "molecule": "O[C@H]1[C@H]2c3cc4c(cc3CN3CCC(=C[C@@H]1O)[C@H]23)OCO4",
    "qualitative.label": "inactive"
  },
  {
    "molecule": "CCCCCCCCCCCCCCCC[N+](C)(CCO)Cc1cnc[nH]1 (stereo not given)",
    "qualitative.label": "active"
  },
  {
    "molecule": "CC(=O)C(=Cc1ccc(C=C(C(C)=O)C(C)=O)cc1)C(C)=O",
    "qualitative.label": "inactive"
  },
  {
    "molecule": "Cc1ccnc(NC(c2ccccc2)c2ccc3cccnc3c2O)c1 (stereo not given)",
    "qualitative.label": "inactive"
  },
  {
    "molecule": "COC(=O)C(CSC(c1ccccc1)(c1ccccc1)c1ccccc1)NC(=O)C(CC(N)=O)NC(=O)OCc1ccccc1 (stereo not drawn) (Cbz-Asn-Cys(Trt)-OMe; configuration not given here)",
    "qualitative.label": "inactive"
  },
  {
    "molecule": "CCCCCCCCCCCCCCCCN(CC)CC",
    "qualitative.label": "active"
  },
  {
    "molecule": "Cc1ccc2nc(-[n+]3cc4ccccc4cc3C)ccc2c1",
    "qualitative.label": "inactive"
  },
  {
    "molecule": "NC(=S)N/N=C\\c1nccc2c(C(F)(F)C(F)(F)C(F)(F)F)cccc12",
    "qualitative.label": "active"
  },
  {
    "molecule": "CCCCCCCCCCCCCCCCOP(=O)([O-])OCC[N+](C)(C)C",
    "qualitative.label": "inactive"
  },
  {
    "molecule": "N[C@H](C(=O)O)[C@@H]1CC(Cl)=NO1",
    "qualitative.label": "inactive"
  },
  {
    "molecule": "CN(C)c1ccc(C(=C2C=CC(=[N+](C)C)C=C2)c2ccc(N(C)C)cc2)cc1 (tested in a mixture with another compound)",
    "qualitative.label": "active"
  },
  {
    "molecule": "CC(C)c1ccc2nc3ccc(C(=O)NCCN4CCN(c5ccccc5)CC4)cn3c(=O)c2c1",
    "qualitative.label": "inactive"
  },
  {
    "molecule": "C1=C(c2ccccc2)C(c2ccc(OCCN3CCCCC3)cc2)Oc2ccccc21 (stereo not given)",
    "qualitative.label": "inactive"
  },
  {
    "molecule": "COc1cc(/C=C(/C)C[N+](=O)[O-])ccc1O",
    "qualitative.label": "inactive"
  },
  {
    "molecule": "CCN(CC)CC(C)(C)C(=O)/C=C/c1ccc(Cl)c(Cl)c1",
    "qualitative.label": "active"
  },
  {
    "molecule": "N#CC1C(=O)SC2c3ccccc3C(=O)c3ccccc3C12 (stereo not given)",
    "qualitative.label": "inactive"
  },
  {
    "molecule": "CN1c2ccccc2C(C)(C)C12C=Cc1cc(O)ccc1O2 (stereo not given)",
    "qualitative.label": "active"
  },
  {
    "molecule": "CCOc1ccc(-c2nc3ccc(-c4nc5ccc(N6CCN(C)CC6)cc5[nH]4)cc3[nH]2)cc1",
    "qualitative.label": "active"
  },
  {
    "molecule": "CNc1ccc2c(c1)c1ccccc1n2C",
    "qualitative.label": "inactive"
  },
  {
    "molecule": "Cc1ccc(C(=Nc2ccccc2)N=P(c2ccccc2)(c2ccccc2)c2ccccc2)cc1",
    "qualitative.label": "active"
  },
  {
    "molecule": "CC(C)(C)CC(C)(C)c1ccc(OCCSC(=N)N)cc1",
    "qualitative.label": "inactive"
  },
  {
    "molecule": "COC(=O)c1nc(=S)[nH]c(C(=O)OC)c1C(=O)c1ccccn1",
    "qualitative.label": "inactive"
  }
]
